Below is a list of entries, each paired with its recorded MIC value.
# Tested on: Esch. coli K12 hyperpermeable
# Assay info: MIC by broth microdilution
# Assay type: cell-based, Escherichia coli
# Setup conditions: Escherichia coli, read-out: MIC of the compounds
Quantity measured: MIC (µg/mL)

Compound	Subject of test	Quantity measured	Unit	Operator symbol	Measured number
CO[C@H]1/C=C/O[C@@]2(C)Oc3c(C)c(O)c4c(c3C2=O)C(=O)C=C(NC(=O)/C(C)=C\C=C\[C@H](C)[C@H](O)[C@@H](C)[C@@H](O)[C@@H](C)[C@H](OC(=O)CBr)[C@@H]1C)C4=O	Esch. coli K12 hyperpermeable	MIC	µg/mL	=	0.25
CO[C@H]1/C=C/O[C@@]2(C)Oc3c(C)c(O)c4c(c3C2=O)C(=O)C(N2CCOCC2)=C(NC(=O)/C(C)=C\C=C\[C@H](C)[C@H](O)[C@@H](C)[C@@H](O)[C@@H](C)[C@H](OC(=O)CO)[C@@H]1C)C4=O [Compound C15, 36-Hydroxy-3-(4-morpholinyl)rifamycin S]	Esch. coli K12 hyperpermeable	MIC	µg/mL	≤	0.13
CO[C@H]1/C=C/O[C@@]2(C)Oc3c(C)c(O)c4c(c3C2=O)C(=O)C=C(NC(=O)/C(C)=C\C=C\[C@H](C)[C@H](O)[C@@H](C)[C@@H](O)[C@@H](C)[C@H](OC(=O)COC(C)=O)[C@@H]1C)C4=O	Esch. coli K12 hyperpermeable	MIC	µg/mL	≤	0.13
CO[C@H]1/C=C/O[C@@]2(C)Oc3c(C)c(O)c4c(c3C2=O)C(=O)C=C(NC(=O)/C(C)=C\C=C\[C@H](C)[C@H](O)[C@@H](C)[C@@H](O)[C@@H](C)[C@H](OC(=O)CI)[C@@H]1C)C4=O	Esch. coli K12 hyperpermeable	MIC	µg/mL	=	1

----------
# System: Esch. coli K12 hyperpermeable
# Assay info: MIC by broth microdilution
# Format: cell-based, Escherichia coli
# Setup conditions: Escherichia coli, read-out: MIC of the compounds

Structure notation	Unit	Operator symbol	MIC
CCN(CC)CC(=O)O[C@H]1[C@H](C)[C@H](O)[C@H](C)[C@@H](O)[C@@H](C)/C=C/C=C(/C)C(=O)NC2=CC(=O)c3c(c(O)c(C)c4c3C(=O)[C@@](C)(O/C=C/[C@H](OC)[C@H]1C)O4)C2=O	µg/mL	≤	0.13
CO[C@H]1/C=C/O[C@@]2(C)Oc3c(C)c(O)c4c(c3C2=O)C(=O)C=C(NC(=O)/C(C)=C\C=C\[C@H](C)[C@H](O)[C@@H](C)[C@@H](O)[C@@H](C)[C@H](OC(=O)CSC)[C@@H]1C)C4=O	µg/mL	=	0.51
CO[C@H]1/C=C/O[C@@]2(C)Oc3c(C)c(O)c4c(c3C2=O)C(=O)C=C(NC(=O)/C(C)=C\C=C\[C@H](C)[C@H](O)[C@@H](C)[C@@H](O)[C@@H](C)[C@H](OC(=O)CCl)[C@@H]1C)C4=O	µg/mL	=	0.25
CO[C@H]1/C=C/O[C@@]2(C)Oc3c(C)c(O)c4c(c3C2=O)C(=O)C(N2CCOCC2)=C(NC(=O)/C(C)=C\C=C\[C@H](C)[C@H](O)[C@@H](C)[C@@H](O)[C@@H](C)[C@H](OC(=O)CBr)[C@@H]1C)C4=O	µg/mL	≤	0.13
